# System: P. falciparum
# Assay name: P. falciparum growth in vitro (Table 14.1, strain not stated)
# Assay type: cell-based
# Condition description: Plasmodium falciparum; 5 μg/ml; read-out: inhibition of malaria parasites (middle figure) (converted)
Think of 70% as a floor: if inhibition at 5 µg/mL stands on it or above, it is y; beneath it, n.

{"columns": ["Compound", "Classification"],
 "data": [
  ["O=C(/C=C/c1ccccc1)c1ccc(O)cc1 [4′-Hydroxychalcone, 4′-hydroxychalcone]", "n"],
  ["C=CCOc1ccc(C(=O)/C=C/c2c(OC)cccc2OC)cc1 [drawing 83]", "n"],
  ["C=CCOc1ccc(C(=O)/C=C/c2ccc(OC)cc2OC)cc1 [drawing 82]", "y"],
  ["COc1ccc(/C=C/C(=O)c2ccccc2O)c(OC)c1", "n"]
]}

Every entry's value here was drawn from patent US6603046B1.
